- measurement-target: T1, Murine B7-H4-Fc (Mouse B7H4 ECD, Fc_6His) (mouse, UniProt Q7TSP5 25-257)
- T1 construct: extracellular domain; also called mouse B7-H4-Fc; FcHis6 tagged murine B7-H4
- T1 sequence (Q7TSP5 whole entry, looked up): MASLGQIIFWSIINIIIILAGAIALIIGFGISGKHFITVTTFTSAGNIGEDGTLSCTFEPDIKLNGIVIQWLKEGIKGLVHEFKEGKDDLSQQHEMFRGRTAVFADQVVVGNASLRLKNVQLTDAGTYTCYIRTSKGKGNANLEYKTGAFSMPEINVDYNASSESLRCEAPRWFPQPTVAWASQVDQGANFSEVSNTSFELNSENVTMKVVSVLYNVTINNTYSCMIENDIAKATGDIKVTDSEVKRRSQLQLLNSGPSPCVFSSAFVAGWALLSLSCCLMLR
- assay-overview: HTRF binding, human IgG1-TM
Would you kindly list EC50 for each of these binders?
// units = nM; emit number, no label

Req: EC50 for ZY0EQD-E02 human IgG1-TM (antibody, V domains shown) VH: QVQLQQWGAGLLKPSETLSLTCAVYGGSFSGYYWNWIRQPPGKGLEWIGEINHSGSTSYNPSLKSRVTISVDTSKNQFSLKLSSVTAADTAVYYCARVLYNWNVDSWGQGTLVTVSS VL: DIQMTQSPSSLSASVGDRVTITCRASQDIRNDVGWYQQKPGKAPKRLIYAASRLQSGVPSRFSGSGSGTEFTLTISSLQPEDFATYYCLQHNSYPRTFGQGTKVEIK ?
Resp: 1.44

Req: EC50 for ZY0EP0-C07 human IgG1-TM (antibody, V domains shown, also called ZY0EPO-C07) VH: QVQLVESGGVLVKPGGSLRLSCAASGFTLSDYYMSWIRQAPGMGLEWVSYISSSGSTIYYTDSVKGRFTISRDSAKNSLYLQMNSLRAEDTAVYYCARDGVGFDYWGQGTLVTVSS VL: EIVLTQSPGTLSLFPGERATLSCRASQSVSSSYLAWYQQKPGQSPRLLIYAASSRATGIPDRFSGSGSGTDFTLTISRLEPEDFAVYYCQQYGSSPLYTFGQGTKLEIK ?
Resp: 0.2

Req: EC50 for ZY0EOB-F05 human IgG1-TM (antibody, V domains shown) VH: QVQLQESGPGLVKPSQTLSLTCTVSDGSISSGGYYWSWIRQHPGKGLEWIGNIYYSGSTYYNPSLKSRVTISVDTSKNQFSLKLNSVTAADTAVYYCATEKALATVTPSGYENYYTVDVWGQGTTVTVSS VL: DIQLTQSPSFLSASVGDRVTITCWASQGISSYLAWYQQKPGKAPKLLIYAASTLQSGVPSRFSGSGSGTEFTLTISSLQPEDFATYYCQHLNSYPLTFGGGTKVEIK ?
Resp: 0.19

Req: EC50 for ZY0EPQ-E02 human IgG1-TM (antibody, V domains shown) VH: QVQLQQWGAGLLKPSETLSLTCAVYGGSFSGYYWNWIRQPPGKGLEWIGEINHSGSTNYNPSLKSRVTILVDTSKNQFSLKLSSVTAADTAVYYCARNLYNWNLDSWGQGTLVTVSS VL: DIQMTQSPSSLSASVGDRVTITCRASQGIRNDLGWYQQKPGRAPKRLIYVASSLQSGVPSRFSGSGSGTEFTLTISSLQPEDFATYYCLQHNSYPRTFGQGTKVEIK ?
Resp: 1.76
